The listing below reports Ki for compounds tested on PGI2 receptor (Homo sapiens).
Sequence (P43119 whole entry): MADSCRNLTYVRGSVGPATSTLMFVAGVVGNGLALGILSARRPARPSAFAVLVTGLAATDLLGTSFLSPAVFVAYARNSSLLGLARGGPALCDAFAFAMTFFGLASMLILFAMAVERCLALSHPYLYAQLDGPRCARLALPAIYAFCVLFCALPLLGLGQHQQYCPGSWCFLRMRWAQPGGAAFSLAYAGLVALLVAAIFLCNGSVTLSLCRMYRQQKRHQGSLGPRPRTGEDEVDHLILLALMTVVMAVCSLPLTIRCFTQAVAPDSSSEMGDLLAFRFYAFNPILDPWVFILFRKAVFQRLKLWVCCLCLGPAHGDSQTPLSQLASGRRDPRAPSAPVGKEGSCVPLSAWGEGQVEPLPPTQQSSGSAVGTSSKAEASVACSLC
Report as a plain number; the unit nM is understood.

// fetch PGI2 receptor (Homo sapiens) Ki for CC(SCCN1CCOc2c(OCC(=O)O)cccc21)(c1ccccc1)c1ccccc1 [Example 21]
430

Can you look up Ki on PGI2 receptor (Homo sapiens) for CC(SCCN1CCCc2c(OCC(=O)O)cccc21)(c1ccccc1)c1ccccc1 [Example 34] ?
520

Query the reported Ki for PGI2 receptor (Homo sapiens); item: O=C(O)COc1cccc2c1OCC2CCSC(c1ccccc1)c1ccccc1 (stereo not drawn) [Example 36]
230

* * *

Documented IC50 across a set of compounds
System: platelet-rich plasma (PRP), platelet aggregation induced by TXA2 agonist U-46619
Assay: Platelet aggregation inhibiting action 1 (U-46619-induced aggregation in PRP)
Type: cell-based
Settings: human PRP, aggregation induced by U-46619 (final 1 to 4 μM), compound added 1 minute before
Only the number, expressed in nM, is required.

>  <compound>
CC(SCCN1CCCc2c(OCC(=O)O)cccc21)(c1ccccc1)c1ccccc1

>  <unit-label>
nM

>  <experimental-value>
590

$$$$
>  <compound>
O=C(O)COc1cccc2c1OCC2CCSC(c1ccccc1)c1ccccc1 (stereo not shown)

>  <unit-label>
nM

>  <experimental-value>
550

$$$$
>  <compound>
CC(OCCN1CCOc2c(OCC(=O)O)cccc21)(c1ccccc1)c1ccccc1

>  <unit-label>
nM

>  <experimental-value>
5500

$$$$
>  <compound>
CC(SCCN1CCOc2c(OCC(=O)O)cccc21)(c1ccccc1)c1ccccc1

>  <unit-label>
nM

>  <experimental-value>
550

$$$$

Give the reported IC50 for CC(SCCC1COc2c(OCC(=O)O)cccc21)(c1ccccc1)c1ccccc1 (stereo not shown) (system: platelet-rich plasma (PRP), platelet aggregation induced by TXA2 agonist U-46619).
490

So what IC50 did "O=C(O)COc1cccc2c1OCCN2CCSC(c1ccccc1)c1ccccc1" get with platelet-rich plasma (PRP), platelet aggregation induced by TXA2 agonist U-46619?
1300

Give platelet-rich plasma (PRP), platelet aggregation induced by TXA2 agonist U-46619 IC50 for "O=C(O)COc1cccc2c1OCCN2CCOC(c1ccccc1)c1ccccc1"
5700

* * *

Test system: platelet-rich plasma (PRP), platelet aggregation induced by ADP
Experiment: Platelet aggregation inhibiting action 2 (ADP-induced aggregation in PRP)
Type: cell-based
Conditions: human PRP, aggregation induced by ADP (final 1 to 10 μM), compound added 1 minute before
log10(IC50) overview
Values are log10 of IC50 in µM.

>  <molecule>
O=C(O)COc1cccc2c1OCCN2CCSC(c1ccccc1)c1ccccc1

>  <experimental-value>
0.30

$$$$
>  <molecule>
CC(SCCN1CCCc2c(OCC(=O)O)cccc21)(c1ccccc1)c1ccccc1

>  <experimental-value>
0.11

$$$$
>  <molecule>
CC(OCCN1CCOc2c(OCC(=O)O)cccc21)(c1ccccc1)c1ccccc1

>  <experimental-value>
1.20

$$$$
>  <molecule>
CC(SCCC1COc2c(OCC(=O)O)cccc21)(c1ccccc1)c1ccccc1 (stereo not shown)

>  <experimental-value>
0.26

$$$$
>  <molecule>
O=C(O)COc1cccc2c1OCC2CCSC(c1ccccc1)c1ccccc1 (stereo not shown)

>  <experimental-value>
-0.02

$$$$

Entry "O=C(O)COc1cccc2c1OCCN2CCOC(c1ccccc1)c1ccccc1" : reported log10(IC50) = ?
1.20

Tell me the measured log10(IC50) of "CC(SCCN1CCOc2c(OCC(=O)O)cccc21)(c1ccccc1)c1ccccc1" , please.
0.26

* * *

Recorded measurements of melting point, one per entry

Some solved cases for reference:
>  <compound>
O=C(O)COc1cccc2c1OCCN2CCSC(c1ccccc1)c1ccccc1 [Example 20]

>  <melting point>
172.5 °C

$$$$
>  <compound>
CC(SCCN1CCOc2c(OCC(=O)O)cccc21)(c1ccccc1)c1ccccc1 [Example 21]

>  <melting point>
161 to 161.5 °C

$$$$
>  <compound>
CC(SCCN1C(=O)COc2c(CCC(=O)O)cccc21)(c1ccccc1)c1ccccc1 [Example 33]

>  <melting point>
110.1 °C

$$$$
>  <compound>
O=C(O)COc1cccc2c1OCCN2CCSCc1ccccc1 [Example 25]

>  <melting point>
127 to 131 °C

$$$$

So what does the record say about melting point for CC(CSCCN1CCOc2c(OCC(=O)O)cccc21)(c1ccccc1)c1ccccc1 [Example 26] ?
138 to 139 °C

* * *

measured-attribute: melting point

Answered examples (2):
>  <smiles-notation>
O=C(O)COc1cccc2c1OCCN2CCSC(c1ccccc1)(c1ccccc1)C(F)(F)F

>  <experimental-value>
140 to 140.5 °C

$$$$
>  <smiles-notation>
CC(SCCN1CCOc2c(OCC(=O)[O-])cccc21)(c1ccccc1)c1ccccc1.[Na+]

>  <experimental-value>
110 °C

$$$$

Recorded melting point of "CC(SCCN1CCOc2c(OCC(=O)O)cccc21)(c1ccc(F)cc1)c1ccc(F)cc1" , please.
142 to 143 °C

Requested read-out: melting point. Entry: "CC(SCCN1C(=O)COc2c(OCC(=O)O)cccc21)(c1ccccc1)c1ccccc1"
106 °C

* * *

measured-attribute: melting point

# count of solved cases: 2
>  <compound>
CC(OCCN1CCOc2c(OCC(=O)O)cccc21)(c1ccccc1)c1ccccc1 [Example 29]

>  <experimental-value>
108 °C

$$$$
>  <compound>
O=C(O)COc1cccc2c1OCCN2CCOC(c1ccccc1)c1ccccc1 [Example 28]

>  <experimental-value>
112 to 113 °C

$$$$

Report melting point for COC(=O)COc1cccc2c1OCC(=O)N2CC(=O)NC(c1ccccc1)c1ccccc1 [Example 12] please.
183 to 184 °C

Could you share which melting point value was measured for CC(SCCC1COc2c(OCC(=O)O)cccc21)(c1ccccc1)c1ccccc1 (centres unmarked) [Example 37] ?
65 to 67 °C

What measured melting point goes with CC(SCCN1CCOc2c(OCC(=O)O)cccc21)(c1ccsc1)c1ccsc1 [Example 27] ?
149 °C

Returns the measured melting point for the input compound. Input: CC(C)(SCCN1CCOc2c(OCC(=O)O)cccc21)c1ccccc1 [Example 24]
114 °C

Reported melting point, compound O=C(O)COc1cccc2c1OCC2CCSC(c1ccccc1)c1ccccc1 (centres unmarked) [Example 36] : ____
88 to 89 °C

Give the measured melting point of CC(SCCN1CCCc2c(OCC(=O)O)cccc21)(c1ccccc1)c1ccccc1 [Example 34] .
150.5 to 152 °C

Can you share its melting point? I mean this compound: "COC(=O)COc1cccc2c1OCCN2CCSC(c1ccccc1)c1ccccc1"
94 to 95 °C

Which melting point is listed for COC(=O)COc1cccc2c1OCCN2CCSC(C)(c1ccccc1)c1ccccc1 [Example 2] ?
101 °C

Which measured melting point value corresponds to O=C(O)COc1cccc2c1OCC(=O)N2CC(=O)NC(c1ccccc1)c1ccccc1 [Example 32] ?
232 to 234 °C
